This collection of values is drawn from patent US20230257449A1.

- ASSAYED_TARGET: H1 (A/Cali/09/2007)
- ASSAY_REMARKS: ELISA
MEASURE_NAME: EC50
Number plus unit, in that order.

BINDER: VH 3 / VL 6 (antibody, V domains shown) VH: QVQLVESGGGVVQPGRSLRLSCAASGFTFSTYAMHWVRQAPGKGLEWVAVISYDANYKYYADSVKGRFTISRDNSKNTLYLQMNSLRAEDTAVYYCAKDSQLRSLLYFEWLSQGYFDYWGQGTLVTVSS VL: EIVMTQSPATLSVSPGERATLSCRSSQSITFDYKNYLAWYQQKPGQAPRLLIYWGSTRATGIPARFSGSGSGTEFTLTISSLQSEDFAVYYCQQHYRTPPSFGQGTKVEIK
EC50: 26.8 pM

Batch: EC50 for all items listed.
1. VH 5 / VL 2 (antibody, V domains shown) VH: QVQLVESGGGVVQPGRSLRLSCAASGFTFSTYAMHWVRQAPGKGLEWVCVISYDANYKYYADSVKGRFTCSRDNSKNTLYLQMNSLRAEDTAVYYCARDSRLRSLLYFEWLSQGYFDYWGQGTLVTVSS VL: DIQMTQSPSSLSASVGDRVTITCRSSQSITFDYKNYLAWYQQKPGKAPKLLIYWGSSLQSGVPSRFSGSGSGTDFTLTISSLQPEDFATYYCQQHYRTPPSFGQGTKVEIK
2. VH 12 / VL 2 (antibody, V domains shown) VH: QVQLVQSGAEVKKPGASVKVSCKASGFTFSTYAINWVRQATGQGLEWMGVISYDANYKYYAQKFQGRVTMTRDTSISTAYMELSSLRSEDTAVYYCARDSQLRSLLYFEWLSQGYFDYWGQGTTLTVSS VL: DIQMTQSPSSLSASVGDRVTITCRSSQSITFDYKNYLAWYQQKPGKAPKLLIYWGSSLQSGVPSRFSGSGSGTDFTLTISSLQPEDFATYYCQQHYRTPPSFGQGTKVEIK

Reply |
1: 23.1 pM; 2: 16.1 pM
